system_tested: T1, light-activated bovine rhodopsin (metarhodopsin II) in rod outer segment membranes (bovine, UniProt P02699 1-348, retinylidene chromophore on Lys-296 (all-trans after light))
T1 construct: whole, on cells; also called MII
assay_method_text: ELISA of clone lysate on rhodopsin
quantity_measured: ELISA (OD450 with receptor minus OD450 without receptor) (OD450)

* LacI fusion clone L38 (Gt library) (other, E. coli, not shown: small tags and cut ends) MKPVTLYDVAEYAGVSYQTVSRVVNQASHVSAKTREKVEAAMAELNYIPNRVAQQLAGKQSLLIGVATSSLALHAPSQIVAAIKSRADQLGASVVVSMVERSGVEACKAAVHNLLAQRVSGLIINYPLDDQDAIAVEAACTNVPALFLDVSDQTPINSIIFSHEDGTRLGVEHLVALGHQQIALLAGPLSSVSARLRLAGWHKYLTRNQIQPIAEREGDWSAMSGFQQTMQMLNEGIVPTAMLVANDQMALGAMRAITESGLRVGADISVVGYDDTEDSSCYIPPLTTIKQDFRLLGQTSVDRLLQLSQGQAVKGNQLLPVSLVKRKTTLAPNTQTASPRALADSLMQLARQVSRLESGQLLDILKDCGLF | 0.823
